Reference source for all entries: PubChem BioAssay AID843

- Test system: CRE-bla reporter cells, beta-lactamase FRET, activation
- measurement_protocol: activators of CRE-BLA reporter, dose response, counter-screen for S1P2 agonist project, cell-based, beta-lactamase FRET (AID 843)
Active and inactive are the calls of the source. No rule for the calls is given here.
Outcome (select one): active, inactive

Q: In this assay, the call recorded for `O=c1c(-c2nc3ccccc3s2)cccn1Cc1ccc(Cl)c(Cl)c1` was what?
Result: active

Q: In this assay, the call recorded for `Cc1cc(C(=O)CN2C(=O)CCC2=O)c(C)n1Cc1ccccc1` was what?
Result: inactive

Q: In this assay, the call recorded for NC(=O)c1ccc(NC(=O)C2CCCO2)cc1 (stereo unspecified) was what?
Result: inactive

Q: In this assay, the call recorded for `CCOC(=O)c1cc2ccc(OC)c(OC)c2c(=O)s1` was what?
Result: inactive

Q: In this assay, the call recorded for `CC(C)n1c(=N)c(C(=O)NCCc2ccccc2)cc2c(=O)n3ccccc3nc21` was what?
Result: inactive

Q: In this assay, the call recorded for `O=S(=O)(c1ccc(N2CCC(c3ccc(Cl)cc3)=N2)cc1)N(CCO)CCO` was what?
Result: active

Q: In this assay, the call recorded for `O=C1CCCC(O)=C1C=NCCc1ccccc1` was what?
Result: inactive

Q: In this assay, the call recorded for `Cc1ccc(Cn2cccc(-c3nc4ccccc4s3)c2=O)cc1` was what?
Result: inactive

Q: In this assay, the call recorded for `O=C1SC(c2ccccc2)=N/C1=C/c1ccco1` was what?
Result: inactive

Q: In this assay, the call recorded for NS(=O)(=O)c1ccc(N2N=C(c3ccc(Br)cc3)CC2c2ccc(F)cc2)cc1 (stereo unspecified) was what?
Result: active

Q: In this assay, the call recorded for `COc1ccccc1CNC(=O)c1c(N)n(CCCN2CCOCC2)c2nc3ccccc3nc12` was what?
Result: inactive

Q: In this assay, the call recorded for `Cc1cc(Br)ccc1OCCCCNCCO` was what?
Result: inactive

Q: In this assay, the call recorded for Cc1cccc(C(=O)NC2CC3CCCC(C2)N3C(=O)NC2CCCCC2)c1 (stereo unspecified) was what?
Result: inactive

Q: In this assay, the call recorded for `Cc1cc(C)c(S(=O)(=O)Nc2ccc(O)cc2)cc1C` was what?
Result: inactive

Q: In this assay, the call recorded for `Oc1cccc(C(=S)N2CCN(Cc3ccccc3)CC2)c1` was what?
Result: inactive

Q: In this assay, the call recorded for Cc1cccc2cc(C(c3nnnn3CC3CCCO3)N3CCc4ccccc4C3)c(=O)[nH]c12 (stereo unspecified) was what?
Result: inactive

Q: In this assay, the call recorded for `Cc1cc(C)n2cc(CSc3nnnn3-c3ccc(Cl)cc3)nc2n1` was what?
Result: inactive

Q: In this assay, the call recorded for `Cc1ccccc1-n1c(=O)c(C#N)cc2c(=O)n3ccccc3nc21` was what?
Result: inactive

Q: In this assay, the call recorded for `Clc1ccc2nc(N3CCNCC3)nc(-c3ccccc3)c2c1` was what?
Result: active

Q: In this assay, the call recorded for `CCCc1nn(-c2cc(Cl)ccc2OC)c2c1C(=O)CCC2` was what?
Result: inactive

Q: In this assay, the call recorded for Clc1ccc(N2N=C(c3cccs3)CC2c2ccco2)cc1 (stereo unspecified) was what?
Result: active

Q: In this assay, the call recorded for `CCOc1cccc(OCCCCn2ccnc2)c1` was what?
Result: inactive

Q: In this assay, the call recorded for `O=C(CCC(=O)N1CCc2ccccc21)Nc1ccccc1` was what?
Result: inactive

Q: In this assay, the call recorded for `CS(=O)(=O)NCc1nnc(SCC(=O)NC2CCCCC2)n1-c1ccc(F)cc1` was what?
Result: inactive

Q: In this assay, the call recorded for `Nc1c(C(=O)NCCCc2ccccc2)c2nc3ccccc3nc2n1Cc1cccs1` was what?
Result: active

Q: In this assay, the call recorded for `CC(C)CNC(=O)c1c(N)n(Cc2ccc3c(c2)OCO3)c2nc3ccccc3nc12` was what?
Result: active

Q: In this assay, the call recorded for CCC(C)NC(=O)c1c(N)n(Cc2ccc3c(c2)OCO3)c2nc3ccccc3nc12 (stereo unspecified) was what?
Result: active

Q: In this assay, the call recorded for `O=C(NCc1ccco1)c1cc2ccc(O)cc2oc1=O` was what?
Result: inactive

Q: In this assay, the call recorded for `CCN(CC)c1ccc(NC(=O)Nc2ccccc2C(F)(F)F)cc1` was what?
Result: inactive

Q: In this assay, the call recorded for `O=C(Cc1c[nH]c2ccccc12)Nc1nc2ccccc2[nH]1` was what?
Result: inactive

Q: In this assay, the call recorded for `CN(C)CCCNS(=O)(=O)c1ccc(N2CCC(c3ccc(Cl)cc3)=N2)cc1` was what?
Result: active

Q: In this assay, the call recorded for `COc1ccc(C(c2c[nH]c3ccccc23)c2c[nH]c3ccccc23)cc1O` was what?
Result: inactive

Q: In this assay, the call recorded for `CCOCCCNc1nc(=S)[nH]c2cc(OC)c(OC)cc12` was what?
Result: inactive

Q: In this assay, the call recorded for `COc1ccc(Cn2c(-c3ccco3)nc3oc4cc(OC)ccc4c(=O)c3c2=O)cc1` was what?
Result: inactive

Q: In this assay, the call recorded for `O=c1c(-c2nc3ccccc3s2)cccn1Cc1ccc(Cl)cc1` was what?
Result: active

Q: In this assay, the call recorded for CCOC(=O)c1c(C)n(C)c2ccc(OCC(O)Cn3nc(C)cc3C)cc12 (stereo unspecified) was what?
Result: inactive

Q: In this assay, the call recorded for `CCOC(=O)c1cc2ccc(OC(=O)c3ccco3)cc2oc1=O` was what?
Result: active

Q: In this assay, the call recorded for `O=C(NCC1(c2ccccc2)CCCC1)C(=O)N1CCOCC1` was what?
Result: inactive

Q: In this assay, the call recorded for `C(=C\c1ccccc1)/CSc1nnc(-c2ccccc2)n1Cc1ccco1` was what?
Result: inactive

Q: In this assay, the call recorded for `Cc1cc(-c2nnc(SCC(=O)NC3CCCC3)o2)no1` was what?
Result: inactive

Q: In this assay, the call recorded for `COc1ccc2cc(S(=O)(=O)NCCCN3CCOCC3)ccc2c1` was what?
Result: inactive

Q: In this assay, the call recorded for `Cc1ccc(CNC(=O)CCNC(=O)c2ccco2)cc1` was what?
Result: inactive

Q: In this assay, the call recorded for `COc1cc2c(cc1OC)C1=C(C#N)CCC(=NC(=O)c3ccc(Cl)cc3)N1CC2` was what?
Result: active

Q: In this assay, the call recorded for Cc1ccc(C2CC(=O)c3cnc(N4CCc5ccccc5C4)nc3C2)cc1 (stereo unspecified) was what?
Result: inactive

Q: In this assay, the call recorded for `O=C(Nc1ccccn1)Nc1cccs1` was what?
Result: inactive

Q: In this assay, the call recorded for `O=c1[nH]c(-c2cccs2)nc2ccccc12` was what?
Result: inactive
